# Lookup of reported absorbance ratio keyed by entry
- targetOfAssay: T1, biotinylated Fc-fused monkey CD137 (monkey, biotin on the AviTag)
- T1 construct: also called cyCD137-Fc-BAP
- T1 sequence (chain, as listed by the source limits assumed): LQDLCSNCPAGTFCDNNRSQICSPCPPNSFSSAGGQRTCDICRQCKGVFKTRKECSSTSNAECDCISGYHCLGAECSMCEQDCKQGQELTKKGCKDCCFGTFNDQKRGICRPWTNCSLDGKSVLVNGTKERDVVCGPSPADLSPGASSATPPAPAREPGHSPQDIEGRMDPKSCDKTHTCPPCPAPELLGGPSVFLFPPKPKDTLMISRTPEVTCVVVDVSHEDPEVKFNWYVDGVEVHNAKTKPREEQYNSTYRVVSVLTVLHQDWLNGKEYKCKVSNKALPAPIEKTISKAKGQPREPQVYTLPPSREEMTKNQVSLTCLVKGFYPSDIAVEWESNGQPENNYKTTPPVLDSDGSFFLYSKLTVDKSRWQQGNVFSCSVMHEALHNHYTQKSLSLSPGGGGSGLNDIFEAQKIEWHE
- protocolNotes: ELISA, 1 mM ADP, 2.5 ug/mL
- Set-up: reference not given here
// return just the number, without any unit appended

Recorded results for 2 binders are shown here.
dBBAT007-P253 (antibody, human IgG1, lambda, V domains shown) VH: EVQLVESGGDLVKPGGGLRLSCAASGFTFSGYTMNWVRQAPGKGLEWVSSISSRSNYAHYADSVKGRFTISRDNAKNSLYLQMNSLRAEDTAVYYCARFGLKNFMNWVFDYWGQGTLVTVSS VL: QSALTQPPSASGSPGQTVTISCTGTSSDVGFYNYVSWYQQHPGKAPKLMIYGTSKRPSGVPDRFSGSKSGNTASLTVSGLQAEDEADYFCSSYAYDAQLVFGGGTKLTVLG = 30.2
dBBAT119-P253 (antibody, human IgG1, lambda, V domains shown, also called dBBAT119H-P253/dBBAT119L-LamLib) VH: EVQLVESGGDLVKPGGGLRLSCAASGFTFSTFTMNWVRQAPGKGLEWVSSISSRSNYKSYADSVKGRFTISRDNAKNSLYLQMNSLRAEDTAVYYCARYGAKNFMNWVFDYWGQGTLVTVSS VL: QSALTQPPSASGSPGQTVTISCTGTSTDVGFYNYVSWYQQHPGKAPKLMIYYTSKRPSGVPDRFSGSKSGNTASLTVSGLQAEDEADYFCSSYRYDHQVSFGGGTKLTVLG = 56.6

# input Dear colleague, I am looking for the recorded absorbance ratio of the following binder: dBBAT021-P253 (antibody, human IgG1, lambda, V domains shown) VH: EVQLVESGGDLVKPGGGLRLSCAASGFTFSSYTMNWVRQAPGKGLEWVSSISSRSNYRDYADSVKGRFTISRDNAKNSLYLQMNSLRAEDTAVYYCARYGGKNILNWVFDYWGQGTLVTVSS VL: QSALTQPPSASGSPGQTVTISCTGTSSDVGFYNYVSWYQQHPGKAPKLMIYEVSKRPSGVPDRFSGSKSGNTASLTVSGLQAEDEADYFCSSYSSDTHVGFGGGTKLTVLG
# output 14
